B1: CPEB3 Ribozyme (parent)
chain: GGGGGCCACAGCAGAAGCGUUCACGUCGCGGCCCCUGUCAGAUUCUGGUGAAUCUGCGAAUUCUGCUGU

- Variants of: B1
- testDescription: self-cleavage, relative activity (ratio to wild type); higher = more cleavage; co-transcriptional
Output: class label from self-cleavage. Mapping: band A: < 0.3; band B: ≥ 0.3 and < 0.9; band C: ≥ 0.9

Worked cases, answers included:
G5A G37U
band A
U20C G25A
band B
G11U C66U
band C
C7U U67G
band C
G2C G41C
band A
G19C G25C
band A
G48U G65C
band B
A16G G58C
band C
A23G C63U
band C
G4U C33U
band C

Which band does U26A A60U fall in?
band B

Which band does A13U C54A fall in?
band A

Which band does G56A C63G fall in?
band B

Which band does G31A G68U fall in?
band C

Which band does G5U U46C fall in?
band A
